Measured values drawn from ChEMBL document CHEMBL1146235 for this set.

Measured CC50, listed per entry for reference.
# testMethodNotes: Cytotoxicity against human PBMC
# Format: cell-based
# experimentalContext: PBMC (peripheral blood mononuclear cells)
measurementKind: CC50

INSERT INTO assay_data (structuresmilesstring, endpointvalue) VALUES
  ('O=[N+]([O-])c1ccc(C2c3c(O)nc(S)nc3Oc3nc(S)nc(O)c32)cc1', '120 µM'),
  ('CCc1c(Cc2cc(C)cc(C)c2)n(COCc2ccc(C(=O)/C=C(\O)C(=O)O)cc2)c(=O)[nH]c1=O', '> 10 µM'),
  ('Cc1cc(C)cc(Cc2c(C(C)C)c(=O)[nH]c(=O)n2COCc2ccc(C(=O)/C=C(\O)C(=O)O)cc2)c1', '> 10 µM'),
  ('CCc1c(Cc2ccccc2)n(COCc2ccc(C(=O)/C=C(\O)C(=O)O)cc2)c(=O)[nH]c1=O', '> 10 µM'),
  ('CC(C)c1c(Cc2ccccc2)n(COCc2ccc(C(=O)/C=C(\O)C(=O)O)cc2)c(=O)[nH]c1=O', '> 10 µM'),
  ('O=Cc1ccc(-c2cc(-c3cccc(C=O)c3)c(O)c(O)c(=O)c2O)cc1', '6 µM'),
  ('CC(C)c1c(Cc2ccccc2)n(COCc2ccccc2)c(=O)[nH]c1=O', '> 10 µM'),
  ('O=C(O)/C(O)=C/C(=O)c1cccc(Cc2ccccc2)c1', '> 10 µM');

###

For UniProt:Q7ZJM1, measured IC50 is reported for the entries below.
measurementKind: IC50 (µM)

INSERT INTO measurements (structuresmilesstring, unitspec, endpointvalue) VALUES
  ('Cc1cc(C)cc(Cc2c(C(C)C)c(=O)[nH]c(=O)n2COCc2ccc(C(=O)/C=C(\O)C(=O)O)cc2)c1', 'µM', 7.67),
  ('O=C(Nc1ccc2c(O)c(/N=N/c3ccc(C(=O)O)cc3)c(S(=O)(=O)O)cc2c1)Nc1ccc2c(O)c(/N=N/c3ccc(C(=O)O)cc3)c(S(=O)(=O)O)cc2c1', 'µM', 0.7),
  ('CCc1c(Cc2cc(C)cc(C)c2)n(COCc2ccc(C(=O)/C=C(\O)C(=O)O)cc2)c(=O)[nH]c1=O', 'µM', 4.44),
  ('CCc1c(Cc2ccccc2)n(COCc2ccc(C(=O)/C=C(\O)C(=O)O)cc2)c(=O)[nH]c1=O', 'µM', 1.82);

###

# measurementTarget: Human immunodeficiency virus type 1 integrase (Human immunodeficiency virus 1, UniProt Q7ZJM1)
# Sequence (Q7ZJM1 whole entry): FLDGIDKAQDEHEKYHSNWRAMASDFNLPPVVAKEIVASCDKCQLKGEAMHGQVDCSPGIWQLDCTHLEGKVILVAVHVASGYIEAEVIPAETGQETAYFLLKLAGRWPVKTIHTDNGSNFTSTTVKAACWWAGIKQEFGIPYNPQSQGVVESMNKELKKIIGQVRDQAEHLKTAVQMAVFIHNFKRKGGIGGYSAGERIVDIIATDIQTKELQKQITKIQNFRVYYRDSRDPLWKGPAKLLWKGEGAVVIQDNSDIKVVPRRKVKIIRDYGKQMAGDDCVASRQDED
pIC50: −log10 of the molar value.
Catalogue of pIC50 values
measurementKind: pIC50

INSERT INTO results (structuresmilesstring, measurementkind, censorsymbol, endpointvalue) VALUES
  ('CC(C)c1c(Cc2ccccc2)n(COCc2ccc(C(=O)/C=C(\O)C(=O)O)cc2)c(=O)[nH]c1=O', 'pIC50', '=', 5.62),
  ('O=Cc1ccc(-c2cc(-c3cccc(C=O)c3)c(O)c(O)c(=O)c2O)cc1', 'pIC50', '=', 5.96),
  ('CC(C)c1c(Cc2ccccc2)n(COCc2ccccc2)c(=O)[nH]c1=O', 'pIC50', '<', 4.00),
  ('O=[N+]([O-])c1ccc(C2c3c(O)nc(S)nc3Oc3nc(S)nc(O)c32)cc1', 'pIC50', '=', 6.52);

###

# measurementTarget: Human immunodeficiency virus type 1 reverse transcriptase (Human immunodeficiency virus 1)
# testMethodNotes: Inhibition of HIV1 reverse transcriptase
IC50 less than 200 nM is Satisfied; IC50 greater than or equal to 200 nM is Not satisfied.

INSERT INTO measurements (structuresmilesstring, assignedclass) VALUES
  ('Cc1cc(C)cc(Cc2c(C(C)C)c(=O)[nH]c(=O)n2COCc2ccc(C(=O)/C=C(\O)C(=O)O)cc2)c1', 'Satisfied'),
  ('CCc1c(Cc2ccccc2)n(COCc2ccc(C(=O)/C=C(\O)C(=O)O)cc2)c(=O)[nH]c1=O', 'Not satisfied'),
  ('O=C(O)/C(O)=C/C(=O)c1cccc(Cc2ccccc2)c1', 'Not satisfied'),
  ('O=C(Nc1ccc2c(O)c(/N=N/c3ccc(C(=O)O)cc3)c(S(=O)(=O)O)cc2c1)Nc1ccc2c(O)c(/N=N/c3ccc(C(=O)O)cc3)c(S(=O)(=O)O)cc2c1', 'Not satisfied'),
  ('CCc1c(Cc2cc(C)cc(C)c2)n(COCc2ccc(C(=O)/C=C(\O)C(=O)O)cc2)c(=O)[nH]c1=O', 'Satisfied'),
  ('CC(C)c1c(Cc2ccccc2)n(COCc2ccccc2)c(=O)[nH]c1=O', 'Satisfied'),
  ('O=Cc1ccc(-c2cc(-c3cccc(C=O)c3)c(O)c(O)c(=O)c2O)cc1', 'Not satisfied'),
  ('CC(C)c1c(Cc2ccccc2)n(COCc2ccc(C(=O)/C=C(\O)C(=O)O)cc2)c(=O)[nH]c1=O', 'Satisfied'),
  ('O=[N+]([O-])c1ccc(C2c3c(O)nc(S)nc3Oc3nc(S)nc(O)c32)cc1', 'Not satisfied');

###

# testMethodNotes: Cytotoxicity against CEM-SS cells assessed as cell viability
# Type: cell-based
# experimentalContext: human, read-out: Activity
Each record here notes measured viability.
measurementKind: viability (%)

INSERT INTO measurements (structuresmilesstring, endpointvalue) VALUES
  ('CC(C)c1c(Cc2ccccc2)n(COCc2ccc(C(=O)/C=C(\O)C(=O)O)cc2)c(=O)[nH]c1=O', 90),
  ('CCc1c(Cc2cc(C)cc(C)c2)n(COCc2ccc(C(=O)/C=C(\O)C(=O)O)cc2)c(=O)[nH]c1=O', 100),
  ('CCc1c(Cc2ccccc2)n(COCc2ccc(C(=O)/C=C(\O)C(=O)O)cc2)c(=O)[nH]c1=O', 91),
  ('Cc1cc(C)cc(Cc2c(C(C)C)c(=O)[nH]c(=O)n2COCc2ccc(C(=O)/C=C(\O)C(=O)O)cc2)c1', 100);

###

# testMethodNotes: Theraputc index, ratio of CC50 of PBMC cells to EC50 of HIV1 NL4-3
# Type: ADME, cell-based
# experimentalContext: read-out: Ratio CC50/EC50
measurementKind: selectivity ratio

INSERT INTO measurements (structuresmilesstring, measurementkind, endpointvalue) VALUES
  ('CCc1c(Cc2cc(C)cc(C)c2)n(COCc2ccc(C(=O)/C=C(\O)C(=O)O)cc2)c(=O)[nH]c1=O', 'selectivity ratio', '> 1000'),
  ('O=Cc1ccc(-c2cc(-c3cccc(C=O)c3)c(O)c(O)c(=O)c2O)cc1', 'selectivity ratio', 2),
  ('CC(C)c1c(Cc2ccccc2)n(COCc2ccc(C(=O)/C=C(\O)C(=O)O)cc2)c(=O)[nH]c1=O', 'selectivity ratio', '> 310'),
  ('CC(C)c1c(Cc2ccccc2)n(COCc2ccccc2)c(=O)[nH]c1=O', 'selectivity ratio', '> 160'),
  ('O=[N+]([O-])c1ccc(C2c3c(O)nc(S)nc3Oc3nc(S)nc(O)c32)cc1', 'selectivity ratio', 14),
  ('Cc1cc(C)cc(Cc2c(C(C)C)c(=O)[nH]c(=O)n2COCc2ccc(C(=O)/C=C(\O)C(=O)O)cc2)c1', 'selectivity ratio', '> 600'),
  ('CCc1c(Cc2ccccc2)n(COCc2ccc(C(=O)/C=C(\O)C(=O)O)cc2)c(=O)[nH]c1=O', 'selectivity ratio', '> 190');
